Molecular target: GRID2IP_2, A4D2P6
Sequence (A4D2P6 272-370): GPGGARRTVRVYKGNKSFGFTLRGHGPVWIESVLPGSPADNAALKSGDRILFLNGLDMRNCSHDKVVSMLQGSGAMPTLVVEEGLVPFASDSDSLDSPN
Test: holdup assay
Design: key: below the threshold = too weak to quantify, mostly under pKd 3.1 to 4
Conditions: plain residues with an end cap or a label only (N-terminal biotin on a linker: ado-ado)
result.type: pKd

Illustrative cases are given below, each with its answer.
| binder | reported.measurement |
| --- | --- |
| KAEEKPPSKV [SCN4B, Q8IWT1] | below the threshold |
| ADEMICITTL [CACNA1D, Q01668] | 4.94 |
| LLQEEWETVM [PTH1R, Q03431] | 4.11 |
| EKPIDSETKM [SLC1A3, P43003] | below the threshold |
| VKQYADVEGF [HNRNPK, P61978;P61978-2] | below the threshold |

Would you be so kind as to report pKd for each listed record?
1. NISARRFTLC [FAM167B, Q9BTA0]
2. PSDSVGKDVF [EGLN1, Q9GZT9]
3. MQILSKPEFI [NPSR1, Q6W5P4]

Solution:
4.21
below the threshold
below the threshold
